- assay-target: PD-1/PD-L1 (Homo sapiens, UniProt Q9NZQ7)
- Construct: Recombinant human PD-L1 protein (19-238) with a Histag at the C-terminus; PD1-H5257 (PD-1)
- Sequence (Q9NZQ7 19-238): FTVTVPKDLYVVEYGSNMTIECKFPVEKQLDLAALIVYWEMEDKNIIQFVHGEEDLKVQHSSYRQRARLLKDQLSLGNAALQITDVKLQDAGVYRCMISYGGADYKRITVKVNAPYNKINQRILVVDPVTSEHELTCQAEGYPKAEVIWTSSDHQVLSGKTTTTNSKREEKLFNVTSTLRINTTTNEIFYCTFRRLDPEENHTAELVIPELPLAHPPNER
- assay-method-text: PD-1/PD-L1 Homogeneous Time-Resolved Fluorescence (HTRF) Binding Assay
- assay-conditions: PD-1/PD-L1 HTRF activity; 3 nM PD1, 10 nM PD-L1, 25° C.
- Description: Example 107. PD-1/PD-L1 Homogeneous Time-Resolved Fluorescence (HTRF) Binding Assay The assays were conducted in a standard black 384-well polystyrene plate with a final volume of 20 μL. Inhibitors were first serially diluted in DMSO and then added to the plate wells before the addition of other reaction components. […] After centrifugation, the plate was incubated at 25° C. for 60 min. before reading on a PHERAstar FS plate reader (665 nm/620 nm ratio). […]
pIC50: −log10 of the molar value.
endpoint: pIC50

State its pIC50: Cc1cn2nc(-c3cccc(-c4cccc(-c5cc6c(=O)n(CCN[C@H](C(=O)O)[C@@H](C)O)c(C)cn6n5)c4Cl)c3Cl)cc2c(=O)n1CCN[C@H](C(=O)O)[C@@H](C)O
7.00 to 8.00

State its pIC50: O=C1CC[C@@H](Cn2cnn3cc(-c4cccc(-c5cccc(-c6cc7c(=O)n(C[C@@H]8CCC(=O)N8)cnn7c6)c5Cl)c4Cl)cc3c2=O)N1
> 8.00

State its pIC50: Cc1cn2nc(-c3cccc(-c4cccc(-c5cc6c(=O)n(CCNC7(C(=O)O)CCC(O)CC7)c(C)cn6n5)c4Cl)c3Cl)cc2c(=O)n1CCNC1(C(=O)O)CCC(O)CC1 (centres unmarked)
7.00 to 8.00

State its pIC50: Cc1cn2nc(-c3cccc(-c4cccc(-c5cc6c(=O)n(CCN7CC[C@H](C(=O)O)C7)c(C)cn6n5)c4Cl)c3Cl)cc2c(=O)n1CCN1CC[C@H](C(=O)O)C1
> 8.00

State its pIC50: O=C1CC(Cn2cnn3cc(-c4cccc(-c5cccc(-c6cc7c(=O)n(CC8CNC(=O)C8)cnn7c6)c5Cl)c4Cl)cc3c2=O)CN1 (centres unmarked)
7.00 to 8.00
